Test system: Staphylococcus aureus
Test: Antibacterial activity against Staphylococcus aureus MRSA ATCC 43300 (CO-ADD:GP_020); MIC in CAMBH media using NBS plates, by Resazurin F(560/590)
Format: functional
Details: Concentration 20 uM, ASSAY_TEST Inhibition of Bacterial Growth, detection method Resazurin, Fluorescence (ex560/em590), MEDIA CAMHB, plate type 384well, CORNING #3640, time 18 hr
reportedMetric: Inhibition (%)
The figure you give is taken to be in %; do not add the unit.

Prompt: Report Inhibition for CCC(C)NC(=O)CC(C)C (stereo unspecified) please.
Response: 6.08

Prompt: Need Inhibition of CCOC(=O)C(=O)Cc1cccnn1 , thanks.
Response: 12.36

Prompt: Looking for the measured Inhibition of COc1cccc2c1C(CO)N1C(C#N)C3CC(C(=O)O)C(C1C2)N3C (stereo unspecified) , can you help?
Response: 14.9

Prompt: I have this molecule here, CC1=CC(=O)Nc2cncnc2N1 , and I need its recorded Inhibition.
Response: 4.06

Prompt: Can you share its Inhibition? I mean this molecule: Nc1cc([N+](=O)[O-])ccc1Nc1ccc(O)cc1
Response: -9.75

Prompt: Could you tell me which Inhibition is on file for CC(C)COC(=O)NC1c2ccccc2Oc2ccccc21 ?
Response: 8.22

Prompt: Item O=c1nc2onnc2c(/C=N\O)[nH]1 has what recorded Inhibition?
Response: 11.4

Prompt: Reported Inhibition, molecule Nc1ncnc(N2CCOCC2)n1 : ____
Response: -3.61

Prompt: Need Inhibition, item CC(C)(NC(=O)c1cc(Cl)c2ccccc2c1O)C(=O)O
Response: 9.7

Prompt: Item O=C(Nc1ccc(Oc2ccc(NC(=O)Nc3ccc([N+](=O)[O-])cc3)cc2)cc1)Nc1ccc([N+](=O)[O-])cc1 has what recorded Inhibition?
Response: 16.59

Prompt: Fill blank: measured Inhibition of the molecule Cc1cc(C)c2c(SC(C)C)nc(N)nc2n1 is ____.
Response: -0.52

Prompt: Any idea what its Inhibition is? The molecule is O=[N+]([O-])/C=C/c1cc2ccccc2[nH]1
Response: 0.82

Prompt: Data request, read-out Inhibition, for Cc1nc(S)nc(O)c1CCC1OCCO1
Response: 13.84

Prompt: Can you look up the measured Inhibition of O=C(Nc1ccc(Cl)c([N+](=O)[O-])c1)Nc1nc2ccccc2s1 for me?
Response: 44.46

Prompt: Sample O=C(O)c1ccc(N2CCCCC2)cc1O — what was its Inhibition?
Response: 7.99

Prompt: Given the entry c1ccc(-c2cn3ccccc3n2)cc1 , report its measured Inhibition.
Response: 26.82

Prompt: Consider the molecule OCc1ncccc1O and give its measured Inhibition.
Response: -1.04

Prompt: # input molecule: COc1ccccc1/C=C1\Cc2ccccc2C1=O ; wanted: its Inhibition
Response: -0.35

Prompt: Reported Inhibition for Nc1ccc(/C=C/c2ccc3ncccc3c2)cc1 : what is it?
Response: -2.75

Prompt: May I ask what Inhibition has been recorded for O=[N+]([O-])c1nc[nH]c1/C=C\c1ccccc1 ?
Response: 6.19

Prompt: Name the reported Inhibition value associated with the molecule O=C1NC(=S)S/C1=C\c1ccccc1C(=O)O
Response: -3.3

Prompt: Requested read-out: Inhibition. Entry: Cc1c(O)ccc2c(O)c(NC(=O)c3ccc4c(c3)CCC(C)(C)O4)c(=O)oc12
Response: 10.86

Prompt: What measured Inhibition goes with CC(C)(C)n1nc(C2CC2)cc1NC(=O)Nc1ccc(Cl)cc1 ?
Response: 0.51

Prompt: Given COC(=O)c1cncc(C)c1 , state its recorded Inhibition.
Response: 18.5

Prompt: Recorded Inhibition of CN(C)c1ccc(/C=C/c2ccc3ccccc3n2)cc1 , please.
Response: -2.51

Prompt: Can you look up the measured Inhibition of CCOC(=O)c1cc(-c2ccccc2)nc2ccc(C)cc12 for me?
Response: 2.82
